- Test Name: chemical genetic growth profiling, strain panel (AID 1159580);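 note: tested at 20 µM; growth read once vehicle control cultures reached saturation at 30 °C; lower values mean less growth of the strain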
- Stated Conditions: S. cerevisiae deletion strains, growth OD, locus YNL128W, strain TEP1
Hit rate of the full screen: of about 5,500 compounds, about 2,000 (36%) were called active. Inconclusive results (about 18%) are left out. Cut-off read from the data, not from the text of the source: active = normalized growth mostly below about 0.91 (no sharp cut-off); inconclusive = no clear call, values can overlap the other calls; inactive = mostly above about 0.92. The list shows a part of the results.
Labels: yes for active, no for inactive

- Molecule: "Cc1nc(N=Nc2ccc(S(=O)(=O)O)cc2S(=O)(=O)O)c(COP(=O)(O)O)c(C=O)c1O"
  Label Class: "no"
- Molecule: "CC[C@@H](CO)NC(=O)[C@@H]1C=C2c3cccc4[nH]cc(c34)C[C@H]2N(C)C1"
  Label Class: "no"
- Molecule: "CN(C)S(=O)(=O)c1ccc2c(c1)/C(=C/c1cc3c([nH]1)CCCC3)C(=O)N2"
  Label Class: "no"
- Molecule: "COc1cc(-c2coc3cc(O[C@@H]4O[C@H](CO)[C@@H](O)[C@H](O)[C@H]4O)c(OC)c(O)c3c2=O)cc(O)c1OC"
  Label Class: "no"
- Molecule: "Cc1cc(=O)n(-c2ccccc2)n1C"
  Label Class: "no"
- Molecule: "O=c1cc(C(F)(F)F)[nH]c2cc(Cl)cc(Cl)c12"
  Label Class: "yes"
- Molecule: "CN(C)C(=O)N=NC(=O)N(C)C"
  Label Class: "no"
- Molecule: "CC(NCCC(c1ccccc1)c1ccccc1)c1ccccc1 (stereo not given)"
  Label Class: "no"
- Molecule: "NCC1OC(OC2C(CO)OC(OC3C(O)C(N)CC(N)C3OC3OC(CO)C(O)CC3N)C2O)C(N)C(O)C1OC1OC(CO)C(O)C(O)C1O (stereo not given)"
  Label Class: "no"
- Molecule: "CC(=O)Oc1cccc2c1C(=O)c1c(OC(C)=O)cc(C(=O)O)cc1C2=O"
  Label Class: "no"
- Molecule: "NC(=O)N1c2ccccc2C=Cc2ccccc21"
  Label Class: "no"
- Molecule: "CN[C@@H]1[C@@H](O[C@H]2O[C@H](CO)[C@@H](N)[C@H](O)[C@H]2O)O[C@H]2C[C@@H](N)[C@H](O[C@H]3[C@H](O)[C@@H](O)[C@H](N)C[C@@H]3N)O[C@@H]2[C@@H]1O"
  Label Class: "no"
- Molecule: "CCNc1nc(Cl)nc(NCC)n1"
  Label Class: "no"
- Molecule: "CN(C)CCc1c[nH]c2ccc(CS(=O)(=O)N3CCCC3)cc12"
  Label Class: "no"
- Molecule: "O=C(O)c1cc(=O)c2cccc(O)c2[nH]1"
  Label Class: "no"
